Taken from patent US20250051316A1.

Here, each record is paired with measured half-life data.
test: Pharmacokinetic assay of Balb/c mice, plasma and brain, oral; format: in vivo; conditions: male, mouse, Brain, p.o. 5 mg/kg
Be sure to follow the number with its unit.

In the examples that follow, each entry is paired with its recorded half-life.
[2H]C1([2H])COC(c2cccc(C)n2)CN1 (single isomer, unassigned) [Example 10-2, 2-(6-Methylpyridin-2-yl)morpholin-5,5-d2]    2.5 h
[2H]C1([2H])COC(c2cc(C)ccn2)CN1 (single isomer, unassigned) [Example 16-1, 2-(4-Methylpyridin-2-yl)morpholin-5,5-d2]    2.9 h
[2H]c1ccc(C2CNCCO2)cc1 (single isomer, unassigned)    1.3 h

// moving on: another record for half-life
Provide only the value of recorded half-life for [2H]c1ccc([C@H]2CNCCO2)nc1 (single isomer, unassigned)
0.8 h

====

Property: Cmax; scope: individual compounds
assay: Pharmacokinetic assay of Balb/c mice, plasma and brain, oral; format: in vivo; conditions: male, mouse, Plasma, p.o. 5 mg/kg
Quick reminder: number only, in ng/mL, skip the unit.

// known answers, use as guide
Cc1nc([C@@H]2CNCCO2)ccc1F (single isomer, unassigned) [Example 19-2]    705
[2H]C1([2H])COC(c2cccc(C)n2)CN1 (single isomer, unassigned) [Example 10-2, 2-(6-Methylpyridin-2-yl)morpholin-5,5-d2]    1320
[2H]c1ccc([C@H]2CNCCO2)nc1 (single isomer, unassigned) [Example 6-2, 2-(pyridin-2-yl-5-d)morpholine]    2050
[2H]C1([2H])CO[C@H](c2ccc(F)cc2)CN1 (single isomer, unassigned) [Example 33-1, 2-(4-Fluorophenyl)morpholin-5,5-d2]    1970
[2H]C1([2H])CO[C@@H](c2ccc(F)cn2)CN1 (single isomer, unassigned) [Example 17-2, 2-(5-fluoropyridin-2-yl)morpholin-5,5-d2]    1450
[2H]c1ccnc([C@@H]2CNCCO2)c1 (single isomer, unassigned) [Example 7-2, 2-(pyridin-2-yl-4-d)morpholine]    1560
[2H]C1([2H])COC(c2cc(C)ccn2)CN1 (single isomer, unassigned) [Example 16-1, 2-(4-Methylpyridin-2-yl)morpholin-5,5-d2]    890

// moving on: another record for Cmax
Identify the reported Cmax for the following entry. [2H]c1ccc(C2CNCCO2)cc1 (single isomer, unassigned) [Example 28-2, 2-(phenyl-4-d)morpholine]
1340

====

test system: C57BL/6 mice, high spontaneous activity induced by phencyclidine (PCP); assay: High spontaneous activity model of mice induced by phencyclidine (PCP); assay type: in vivo; details: compound 3 mg/kg oral + PCP 5 mg/kg i.p., 60 minutes after modeling
Marks after values point to notes of the source that are not given here.
Catalogue of compounds with associated Total distance (m, Mean ± SEM) 60 minutes

[2H]C1([2H])CO[C@H](c2ccc(F)cc2)CN1 (single isomer, unassigned) [Example 33-1, 2-(4-Fluorophenyl)morpholin-5,5-d2]    126.3*** m
[2H]C1([2H])CO[C@@H](c2ccc(F)cn2)CN1 (single isomer, unassigned) [Example 17-2, 2-(5-fluoropyridin-2-yl)morpholin-5,5-d2]    114.1*** m
[2H]C1([2H])COC(c2cccc(C)n2)CN1 (single isomer, unassigned) [Example 10-2, 2-(6-Methylpyridin-2-yl)morpholin-5,5-d2]    152.6*** m

Here is the next item to consider.
Indicate its recorded Total distance (m, Mean ± SEM) 60 minutes; the compound in question is [2H]c1ccc(C2CNCCO2)cc1 (single isomer, unassigned)
113.09 ± 12.69 m

====

Parameter Tmax: see the listing below.
assay: Pharmacokinetic assay of Balb/c mice, plasma and brain, oral; assay type: in vivo; conditions: male, mouse, Plasma, p.o. 5 mg/kg
Please state the figure in min; there is no need to write the unit.

[2H]C1([2H])COC(c2cc(C)ccn2)CN1 (single isomer, unassigned) [Example 16-1, 2-(4-Methylpyridin-2-yl)morpholin-5,5-d2]    15
[2H]C1([2H])CO[C@H](c2ccc(F)cc2)CN1 (single isomer, unassigned) [Example 33-1, 2-(4-Fluorophenyl)morpholin-5,5-d2]    15

Now for another entry.
Tell us which Tmax value is on record for [2H]C1([2H])COC(c2cccc(C)n2)CN1 (single isomer, unassigned) [Example 10-2, 2-(6-Methylpyridin-2-yl)morpholin-5,5-d2]
15

====

assay: Pharmacokinetic assay of Balb/c mice, plasma and brain, oral; format: in vivo; details: male, mouse, Brain, p.o. 5 mg/kg
Below: a set of entries, each annotated with reported Cmax.
Answer in ng/mL, number only, no unit symbol.

Below: 4 compounds and their reported Cmax.
[2H]C1([2H])COC(c2cccc(C)n2)CN1 (single isomer, unassigned) [Example 10-2, 2-(6-Methylpyridin-2-yl)morpholin-5,5-d2]    3540
[2H]c1ccc([C@H]2CNCCO2)nc1 (single isomer, unassigned) [Example 6-2, 2-(pyridin-2-yl-5-d)morpholine]    3030
[2H]C1([2H])CO[C@@H](c2ccc(F)cn2)CN1 (single isomer, unassigned) [Example 17-2, 2-(5-fluoropyridin-2-yl)morpholin-5,5-d2]    3160
[2H]c1ccc(C2CNCCO2)cc1 (single isomer, unassigned) [Example 28-2, 2-(phenyl-4-d)morpholine]    2110

Give me measured Cmax, please, for this compound: [2H]C1([2H])COC(c2cc(C)ccn2)CN1 (single isomer, unassigned) [Example 16-1, 2-(4-Methylpyridin-2-yl)morpholin-5,5-d2]
1740

Give the reported Cmax for this compound. [2H]C1([2H])CO[C@H](c2ccc(F)cc2)CN1 (single isomer, unassigned) [Example 33-1, 2-(4-Fluorophenyl)morpholin-5,5-d2]
8360

Identify measured Cmax corresponding to [2H]c1ccnc([C@@H]2CNCCO2)c1 (single isomer, unassigned) [Example 7-2, 2-(pyridin-2-yl-4-d)morpholine]
2500

Indicate the recorded Cmax value for this compound: Cc1nc([C@@H]2CNCCO2)ccc1F (single isomer, unassigned) [Example 19-2]
2510

====

test: Pharmacokinetic assay of Balb/c mice, plasma and brain, oral; format: in vivo; settings: male, mouse, Brain, p.o. 5 mg/kg
experimentalEndpoint: AUC(0-t) (ng·h/mL)
Return type: number; implicit unit ng·h/mL.

Cc1nc([C@@H]2CNCCO2)ccc1F (single isomer, unassigned)    8640
[2H]C1([2H])COC(c2cc(C)ccn2)CN1 (single isomer, unassigned) [Example 16-1, 2-(4-Methylpyridin-2-yl)morpholin-5,5-d2]    5630

Fill in AUC(0-t) for record [2H]c1ccnc([C@@H]2CNCCO2)c1 (single isomer, unassigned)
4410

====

biological target: TAAR1 receptor (Homo sapiens); test: Effect on cAMP content in cells which stably express TAAR1 receptor
Sequence (Q96RJ0 whole entry): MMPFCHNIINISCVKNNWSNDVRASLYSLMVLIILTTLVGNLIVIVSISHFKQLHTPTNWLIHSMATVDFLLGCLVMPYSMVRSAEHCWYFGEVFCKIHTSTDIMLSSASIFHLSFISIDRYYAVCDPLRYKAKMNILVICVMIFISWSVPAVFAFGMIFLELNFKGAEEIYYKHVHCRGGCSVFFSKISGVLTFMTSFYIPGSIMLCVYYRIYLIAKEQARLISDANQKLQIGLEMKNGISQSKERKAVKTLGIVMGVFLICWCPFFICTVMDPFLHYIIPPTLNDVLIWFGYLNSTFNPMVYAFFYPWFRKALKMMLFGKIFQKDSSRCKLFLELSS
Rule for this label: Y means EC50 is less than 0.01 µM; N means EC50 is at least 0.01 µM.

Example cases with answers are listed next.
Fc1cccc([C@@H]2CNCCO2)c1    Y
Cc1cccc([C@@H]2CNCCO2)c1    N
[2H]C1([2H])COC(c2cc(C)ccn2)CN1 (single isomer, unassigned) [Example 16-1, 2-(4-Methylpyridin-2-yl)morpholin-5,5-d2]    N
Cc1nc([C@@H]2CNCCO2)ccc1F (single isomer, unassigned)    N
c1ccc(C2CNCCO2)nc1 (stereo not shown)    Y

Answer whether the molecule Clc1ccc(C2CNCCO2)nc1 (single isomer, unassigned) has EC50 strictly less than 0.01 µM
N

Bench note: check whether [2H]C1([2H])CO[C@@H](c2ccc(F)cn2)CN1 (single isomer, unassigned) [Example 17-2, 2-(5-fluoropyridin-2-yl)morpholin-5,5-d2] shows EC50 below 0.01 µM
Y

====

test: Pharmacokinetic assay of Balb/c mice, plasma and brain, oral; format: in vivo; settings: male, mouse, Brain, p.o. 5 mg/kg
This listing pairs compounds with measured Tmax.
Kindly answer with a numeric value in min, unit omitted.

[2H]c1ccnc([C@@H]2CNCCO2)c1 (single isomer, unassigned)    30
Cc1nc([C@@H]2CNCCO2)ccc1F (single isomer, unassigned)    120

# input for lookup
Check the records and state Tmax for [2H]C1([2H])COC(c2cc(C)ccn2)CN1 (single isomer, unassigned) [Example 16-1, 2-(4-Methylpyridin-2-yl)morpholin-5,5-d2]
15

====

experiment: Pharmacokinetic assay of Balb/c mice, plasma and brain, oral; type: in vivo; conditions: male, mouse, Plasma, p.o. 5 mg/kg
experimentalEndpoint: AUC(0-t) (ng·h/mL)
Just the number in ng·h/mL, nothing appended.

These recorded examples may help you get a feel for the data.
[2H]C1([2H])CO[C@H](c2ccc(F)cc2)CN1 (single isomer, unassigned) [Example 33-1, 2-(4-Fluorophenyl)morpholin-5,5-d2]    5030
Cc1nc([C@@H]2CNCCO2)ccc1F (single isomer, unassigned) [Example 19-2]    2760
[2H]c1ccc(C2CNCCO2)cc1 (single isomer, unassigned) [Example 28-2, 2-(phenyl-4-d)morpholine]    2820
[2H]C1([2H])CO[C@@H](c2ccc(F)cn2)CN1 (single isomer, unassigned) [Example 17-2, 2-(5-fluoropyridin-2-yl)morpholin-5,5-d2]    2630
[2H]c1ccnc([C@@H]2CNCCO2)c1 (single isomer, unassigned) [Example 7-2, 2-(pyridin-2-yl-4-d)morpholine]    2840

Look up AUC(0-t) of [2H]C1([2H])COC(c2cc(C)ccn2)CN1 (single isomer, unassigned) [Example 16-1, 2-(4-Methylpyridin-2-yl)morpholin-5,5-d2] and report it.
2270

Complete the entry with AUC(0-t) for [2H]c1ccc([C@H]2CNCCO2)nc1 (single isomer, unassigned) [Example 6-2, 2-(pyridin-2-yl-5-d)morpholine]
4300

Give recorded AUC(0-t). [2H]C1([2H])COC(c2cccc(C)n2)CN1 (single isomer, unassigned) [Example 10-2, 2-(6-Methylpyridin-2-yl)morpholin-5,5-d2]
5430
